test_description: Pharmacokinetic study of ailanthone in Sprague-Dawley rats
cond: plasma, po, rat, p.o. 5 mg kg^−1, n=6, mean±s.d.
quantity_kind: half-life (h)
Report as a plain number; the unit h is understood.

Measured half-life, C=C1[C@@H](O)[C@]2(O)OC[C@]34[C@H]2[C@@]2(C)[C@H](O)C(=O)C=C(C)[C@@H]2C[C@H]3OC(=O)C[C@@H]14 : 12.2

====

Reported activity at 10 µM is given for each of the following compounds.
test_target: AR1-651 (Homo sapiens, UniProt P10275)
Construct: FLAG; expressed in transfected cells; host or cells: 22RV1
Sequence (P10275 1-651): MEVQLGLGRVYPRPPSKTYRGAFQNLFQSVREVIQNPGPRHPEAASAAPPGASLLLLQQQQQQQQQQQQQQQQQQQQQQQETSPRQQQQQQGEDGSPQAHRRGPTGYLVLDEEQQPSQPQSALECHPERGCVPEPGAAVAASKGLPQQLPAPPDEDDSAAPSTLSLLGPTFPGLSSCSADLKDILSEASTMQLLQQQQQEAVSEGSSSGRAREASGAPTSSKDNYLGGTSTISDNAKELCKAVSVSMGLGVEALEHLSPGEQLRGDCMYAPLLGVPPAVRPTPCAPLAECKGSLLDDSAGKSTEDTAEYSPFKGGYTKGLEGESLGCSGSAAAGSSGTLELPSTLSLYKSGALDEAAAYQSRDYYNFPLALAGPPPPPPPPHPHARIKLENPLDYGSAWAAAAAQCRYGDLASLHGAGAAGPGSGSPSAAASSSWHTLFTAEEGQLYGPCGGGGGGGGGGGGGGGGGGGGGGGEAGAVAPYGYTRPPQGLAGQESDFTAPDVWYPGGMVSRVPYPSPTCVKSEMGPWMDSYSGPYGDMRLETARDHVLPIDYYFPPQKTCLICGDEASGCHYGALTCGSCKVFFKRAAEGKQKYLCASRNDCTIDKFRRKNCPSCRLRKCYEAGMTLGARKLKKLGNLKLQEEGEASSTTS
test_description: MMTV-luc dual luciferase reporter assay, AR1-651-induced activity in 22RV1 cells;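 further: luminometric read-out of firefly luciferase signal normalized to Renilla luciferase signal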
Format: cell-based
cond: 22Rv1, read-out: MMTV-luc Activity (%), AR1-651-induced
Value expressed in %; do not type the unit.

Below, 4 compounds whose answers are already recorded.
>>> value_reported("O[C@H]1[C@H]2c3cc4c(cc3CN3CCC(=C[C@@H]1O)[C@H]23)OCO4")
66
>>> value_reported("COc1cc(-c2oc3cc(O)cc(O)c3c(=O)c2O)ccc1O")
139
>>> value_reported("CC(C)(C)[C@]1(O)CC2OC(=O)CC23C(=O)OC2OC(=O)[C@H](O)C231 (some centres unmarked) [Bilobalide]")
98.7
>>> value_reported("C=CCc1ccc(O)c(-c2cc(CC=C)ccc2O)c1")
59.3

Query OCc1ccc(O[C@@H]2O[C@H](CO)[C@@H](O)[C@H](O)[C@H]2O)cc1 yields activity at 10 µM of 70
